# System: HOP-62 NSCLC
# TEST NAME: NCI tumour cell line growth inhibition, 48 h
MEASURE NAME: TGI

Sample N#CC(c1cc(Cl)ncn1)c1nc2cc(C(F)(F)F)ccc2s1 (centres undefined) — what was its TGI?
30.9 µM

Then this molecule: "COc1cc([N+](=O)[O-])c(S(=O)(=O)O)cc1-[n+]1nc(C(=O)Nc2ccccc2)nn1-c1ccc([N+](=O)[O-])c(S(=O)(=O)[O-])c1"
> 100 µM

Then this molecule: COc1ccc(C2C(C(=O)O)=C(COC(C)=O)Oc3cc4c(cc32)OCO4)c(OC)c1 (centres undefined)
> 100 µM

Then this molecule: "Cc1cc(C)c(C2=NO[C@@H]3[C@H]2C(=O)C=C2N(Cc4ccccc4)CCO[C@@]23O)c(C)c1"
> 100 µM

----------
# Tested on: M14 melanoma
# TEST NAME: NCI tumour cell line growth inhibition, 48 h
MEASURE NAME: GI50

Sample "O=C(Cc1csc2nc(-c3ccc(Br)cc3)cn12)N/N=C/c1ccccc1O" — what was its GI50?
2.58 µM

Then this compound: COc1cc2c(cc1OC)C(Sc1ccc(Cl)cc1)c1c(nc(N)c(C#N)c1N)O2 (stereo not given)
1.63 µM

Then this compound: "Cc1ncc([N+](=O)[O-])n1CCOc1ccc(C(=O)/C=C/c2ccc(C(F)(F)F)cc2)cc1"
3.85 µM

Then this compound: "CNc1ccc(CSc2ccc(C)cc2)cc1"
13.6 µM

Then this compound: "OCCN1CCCN(CCCN2c3ccccc3Sc3ccc(C(F)(F)F)cc32)CC1"
1.97 µM

----------
# System: ACHN renal
# TEST NAME: NCI tumour cell line growth inhibition, 48 h
MEASURE NAME: TGI

Sample "CC[P+](c1ccccc1)(N(C)C)N(C)C" — what was its TGI?
> 100 µM

Then this compound: "COc1ccc(N=C2C(=O)Nc3ccc(Br)cc32)cc1"
38.6 µM

Then this compound: "Cc1c(C(=O)/C=C/c2ccc3c(c2)OCO3)[n+](=O)c2ccccc2n1[O-]"
> 100 µM

Then this compound: "CC(C)(C)C(=O)C(N)C(=O)C(C)(C)C"
> 100 µM

Then this compound: O=C(Nc1nnc(-c2ccccc2)o1)C(SC(=S)N1CCCC1)c1ccccc1 (stereo not drawn)
> 100 µM

Then this compound: "COc1cc(C(=O)Nc2ccc(-c3nc4ccccc4[nH]3)cc2)cc(OC)c1OC"
23.1 µM

Then this compound: "O=C(Nc1ccc(-n2cc(-c3ccncc3)c(-c3ccc(Cl)c(O)c3)n2)cc1)c1ccc(Cl)c(Cl)c1"
> 100 µM

Then this compound: "CN(C)CCCNC(=O)N/N=C/c1ccccn1"
> 10 µM

Then this compound: CC(=O)N1CN2C(=O)CCC2c2cc(C)ccc21 (stereo not drawn)
> 100 µM

Then this compound: "COc1ccc(/C=C2\N=C3N(Cc4ccccc4)C=C(N)N3C2=O)cc1"
> 100 µM

Then this compound: COc1ccc2c(c1)CCC1C2CCC2(C)C(NC(=O)CCCCC3CCSS3)CCC12 (stereo not drawn)
> 100 µM

Then this compound: "O=C(Cn1ccnc1[N+](=O)[O-])NCc1ccc(F)cc1"
> 100 µM

Then this compound: "CN(Cc1ccccc1)C(=S)S"
> 100 µM

Then this compound: "Clc1ccc(/C=C/c2csnn2)cc1"
> 100 µM

Then this compound: O=C(O)C1C2OC(C(Br)C2Br)C1C(=O)O (stereo not drawn)
> 100 µM

Then this compound: "Cc1nc(Nc2ccc(Cl)c(Cl)c2)sc1C(/C=C/c1ccc2c(c1)OCO2)=N/Nc1ccc([N+](=O)[O-])cc1[N+](=O)[O-]"
> 100 µM

Then this compound: "COC1=C(OC)C(=O)C(Cc2c(-c3ccccc3)nc3sc(Cl)cn23)=C(C)C1=O"
30.7 µM

Then this compound: CCOC(=O)C(NC(=O)c1ccccc1)(Nc1ccc(S(=O)(=O)Nc2cc(C)on2)cc1)C(F)(F)F (stereo not drawn)
> 100 µM

Then this compound: "Nc1cccc(C(=O)/C=C/c2ccccc2O)c1"
> 100 µM

Then this compound: "CCN(CCCl)c1cc(CN(C)C)cc(NC(=O)c2ccc(C(=O)Nc3cccc(N(CCCl)NN)c3)cc2)c1"
0.233 µM

Then this compound: "CSC1=C(C)C(/C=N/Nc2ccc([N+](=O)[O-])cc2)=C(C)N(c2ccccc2)S1(=O)=O"
> 100 µM

Then this compound: COc1ccc(C2NC(c3ccc(OC)cc3)C(C)C(=O)C2C)cc1 (stereo not drawn)
> 100 µM

Then this compound: Cc1cc2nc3c(C(OC4OC(CO)C(O)C(O)C4O)C(O)CO)nn(-c4ccc(F)cc4)c3nc2cc1C (stereo not drawn)
> 100 µM

Then this compound: C=C(C)C1CCC2(C)C1CCC1(C)C2CCC2C3(C)C4OC(OC4=O)C(C)(C)C3CCC21C (stereo not drawn)
> 100 µM

Then this compound: COc1cc([C@H]2c3cc4c(cc3[C@H](NCc3ccc(F)cc3)C3COC(=O)[C@H]32)OCO4)cc(OC)c1O (stereo partly drawn)
4.34 µM

Then this compound: "Cc1cccc(NC(=O)CSc2nnc(-c3ccc(N=Cc4ccc(Cl)cc4)cc3)o2)c1"
> 100 µM

Then this compound: CCOC(=O)CCC(NC(=O)c1ccc(NCc2ccc3nc(OC)c(OC)nc3c2)c2ccccc12)C(=O)OCC (stereo not drawn)
> 100 µM

Then this compound: "COc1ccc(-c2nn(-c3cccc(Cl)c3)cc2-c2c(C#N)c(=O)n3[nH]c(-c4ccc(C)o4)nc3c2C#N)cc1"
> 50 µM

Then this compound: "Cc1cc(C)n(C(C)(C(=O)Cc2ccccc2)n2nc(C)cc2C)n1"
> 100 µM

Then this compound: "CCOC(=O)NC(Nc1ccc(C(=O)O)cc1)(C(F)(F)F)C(F)(F)F"
> 100 µM

Then this compound: CNC(=O)N(CCCCC(NC(C)=O)C(=O)NCc1ccccc1)Cc1ccccc1 (stereo not drawn)
> 100 µM

Then this compound: COc1ccc(C2CC(c3cccc(Nc4ccncc4)c3)=NN2c2ccccc2)cc1 (stereo not drawn)
3.28 µM

Then this compound: "CN(C)CCC(/C=C/c1ccccc1)=N\Nc1c(F)c(F)c(F)c(F)c1F"
> 100 µM

Then this compound: "Nc1c(-c2ccccc2)c2ccc([N+](=O)[O-])cc2c(=O)n1-c1cccc(C(=O)O)c1"
> 100 µM

Then this compound: "COc1ccccc1CNCCCN1C(=O)c2ccc3c4c(ccc(c24)C1=O)C(=O)N(CCCNCCCCN)C3=O"
11.1 µM

Then this compound: CCCCCCC1CCCCN1C(c1ccccc1)C(O)c1ccccc1 (stereo not drawn)
21.6 µM

Then this compound: "Cc1cc(=O)[nH]c2c1C(=O)c1c(C)cc(=O)n(C)c1C2=O"
0.223 µM

Then this compound: "C[C@]12CC[C@H]3[C@@H](CCC4=C/C(=N/OCCN5CCCCC5)CC[C@@]43C)[C@@H]1CC[C@@H]2O"
51.6 µM

----------
Please go through the items and note down their TGI.
# Tested on: SN12C renal
# TEST NAME: NCI tumour cell line growth inhibition, 48 h

Provide the documented TGI with SN12C renal as the system for "Cn1cc(C2=C(c3cccc([N+](=O)[O-])c3)C(=O)NC2=O)c2ccccc21"
> 25 µM

Then this compound: "O=c1[nH]c(NCCCCCO)nc2nc[nH]c12"
> 100 µM

Then this compound: COc1cc2c(cc1OC)C(C1CC1)ON(C)CC2 (centres undefined)
> 100 µM

Then this compound: CCOC(=O)CCC(C(=O)OCC)n1nnc2cc(Nc3c(C)[n+]([O-])c4cc(Cl)ccc4[n+]3[O-])ccc21 (centres undefined)
> 100 µM

Then this compound: "Cc1cc(C)n(C(C)(C(=O)Cc2ccccc2)n2nc(C)cc2C)n1"
> 100 µM

Then this compound: "c1ccc2c(c1)ccc1cc3cc(NCCCCNc4ccc5nc6c(ccc7ccccc76)cc5c4)ccc3nc12"
2.7 µM

Then this compound: COc1ccc2c(c1)CCC1C2CCC2(C)C(NC(=O)CCCCC3CCSS3)CCC12 (centres undefined)
> 100 µM

Then this compound: COC(=O)[C@]1(c2cc3ccccc3[nH]2)CC2CNC1C1OC(C)(C)OC21 (some centres undefined)
> 100 µM

Then this compound: CCOC(=O)c1c(-c2ccc(Cl)cc2)c(C#N)c(=S)n(C2OC(COC(C)=O)C(OC(C)=O)C(OC(C)=O)C2OC(C)=O)c1C (centres undefined)
> 100 µM

----------
# Tested on: HOP-62 NSCLC
# TEST NAME: NCI tumour cell line growth inhibition, 48 h
Where a SMILES comes first, the peptide text is derived from it. The star is where a group is joined. Fmoc = O=C(OCC1c2ccccc2-c2ccccc21)*; OBn = c1ccc(CO*)cc1; tBu = CC(C)(C)*
MEASURE NAME: TGI

Sample COc1ccc(C=C2C(C)=NN(c3cccc(Cl)c3)C23C(Cl)C(=O)N3c2nc3ccccc3s2)cc1 (centres undefined) — what was its TGI?
44.4 µM

Then this compound: NCC1OC(OC2C(N)CC(N)C(O)C2OC2OC(CO)C(O)C2O)C(N)C(O)C1O (centres undefined)
> 50 µM

Then this compound: "N#CC(C#N)=C/C=C/c1ccccc1[N+](=O)[O-]"
> 10 µM

Then this compound: CN(C)CC(=O)N1CCc2c([nH]c3ccccc23)C1c1cccnc1 (centres undefined)
> 100 µM

Then this compound: N#Cc1cc2c(n(C3OC(CO)C(O)C(O)C3O)c1=S)CCC2 (centres undefined)
> 100 µM

Then this compound: "COC(=O)c1sc(=S)c2sc(C(=O)OC)c(C(=O)OC)c2c1C(=O)OC"
> 100 µM

Then this compound: c1ccc(CN2CCC(CNc3ncnc4ccccc34)C2)cc1 (centres undefined)
> 100 µM

Then this compound: CC(OC(C)(C)C)C(NC(=O)OCC1c2ccccc2-c2ccccc21)C(=O)NC(Cc1ccccc1)C(=O)OCc1ccccc1 (centres undefined) (Fmoc-Thr(tBu)-Phe-OBn; configuration not given here)
> 100 µM

Then this compound: "Cc1cc(Br)c(O)c(-c2cscn2)c1"
41.2 µM
